Reference source: ChEMBL document CHEMBL5291721

Molecular target: Muscarinic acetylcholine receptor M2 (Homo sapiens); also: assay procedure not described here
Sequence (P08172 whole entry): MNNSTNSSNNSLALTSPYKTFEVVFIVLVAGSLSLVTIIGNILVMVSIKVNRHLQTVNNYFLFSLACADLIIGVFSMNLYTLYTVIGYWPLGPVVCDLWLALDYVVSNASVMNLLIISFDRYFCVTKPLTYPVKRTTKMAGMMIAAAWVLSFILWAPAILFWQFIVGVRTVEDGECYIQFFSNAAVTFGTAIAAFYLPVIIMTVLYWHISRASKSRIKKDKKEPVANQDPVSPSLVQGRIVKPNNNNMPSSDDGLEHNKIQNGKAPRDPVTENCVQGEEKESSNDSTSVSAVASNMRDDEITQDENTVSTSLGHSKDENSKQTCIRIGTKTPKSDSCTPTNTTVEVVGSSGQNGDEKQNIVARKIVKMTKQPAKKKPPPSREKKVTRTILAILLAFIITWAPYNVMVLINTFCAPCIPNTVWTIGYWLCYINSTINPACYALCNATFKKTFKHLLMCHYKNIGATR
Type: functional, cell-based

>  <COMPOUND>
C[C@H]1C[C@@H]2[C@H]([C@@H](O)C[C@@]3(C)[C@H]2CC[C@]3(O)C(=O)CO)[C@@]2(C)C=CC(=O)C=C12

>  <AC50>
> 10 µM

$$$$
>  <COMPOUND>
O=C(O)c1cc(-c2ccc(F)cc2F)ccc1O

>  <AC50>
> 10 µM

$$$$
>  <COMPOUND>
CC(C)(C(=O)c1cccnc1)c1cccnc1

>  <AC50>
> 10 µM

$$$$
>  <COMPOUND>
CC(=O)N[C@H]1[C@H]([C@H](O)[C@H](O)CO)OC(C(=O)O)=C[C@@H]1N=C(N)N

>  <AC50>
> 10 µM

$$$$
>  <COMPOUND>
COc1ccc(C(=O)N2CCN(c3ccc4c(c3)CCC(=O)N4)CC2)cc1OC

>  <AC50>
> 30 µM

$$$$
>  <COMPOUND>
O=C(CCCCCCC(=O)Nc1ccccc1)NO

>  <AC50>
> 30 µM

$$$$
>  <COMPOUND>
NS(=O)(=O)c1cc(-c2nnn[nH]2)c(NCc2cccs2)cc1Cl [AZOSEMIDE]

>  <AC50>
> 30 µM

$$$$
>  <COMPOUND>
CCC1(C2=CCCCCC2)C(=O)NC(=O)NC1=O

>  <AC50>
> 10 µM

$$$$
>  <COMPOUND>
CC(=O)N(CC(O)CO)c1c(I)c(C(=O)NCC(O)CO)c(I)c(C(=O)NCC(O)CO)c1I (centres undefined) [IOHEXOL]

>  <AC50>
> 10 µM

$$$$
